These entries and their values trace back to PubChem BioAssay.

z-score values for the compounds below.
- Measurement protocol: plasmodial surface anion channel blockers, osmotic lysis – cell-based, P. falciparum Indochina, OD700, 2 h, primary screen (AID 1155);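 note: lysis reports solute entry through the parasite surface anion channel PSAC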
- Measurement parameters: P. falciparum Indochina infected erythrocytes, higher = more signal, called active from +8 up or from −8 down
Provide a numeric answer; units are not to be included.

Compound	z-score
O=C(N1CCCCC1)[C@]1(CCS(=O)(=O)c2ccccc2)N=C(c2ccc(OCCCO)cc2)O[C@@H]1c1ccccc1	19.5
C=CCN1C(=O)[C@]2(COC(c3ccc(OCCCO)cc3)=N2)Cc2ccccc21	7.4
Cc1ccccc1/C=C/C=O	0.146
CC1CC/C=C\[C@H]2OC34C=CCN(CCN5CCOCC5)C(=O)[C@H]3N(CCCCCO)C(=O)[C@@H]4C2C(=O)O1 (some centres undefined)	0.618
C=C(C(=O)CC[C@@H](OC(=O)c1cccnc1)c1ccc(CO)o1)C(C)C	0.0559

Challenge: Please give measured z-score of the following entry: Cn1c2c(c3ccccc31)C(=O)C1NC2C=CC1(C)C(=O)OCc1ccccc1 (centres undefined)
Response given: 0.896

Challenge: Please give measured z-score of the following entry: [N-]=[N+]=NCc1ccccc1C[C@@]1(C(=O)NCc2ccccc2)N=C(c2ccc(OCCCO)cc2)O[C@@H]1c1ccccc1CN=[N+]=[N-]
Response given: 15.3

Challenge: Please give measured z-score of the following entry: O=C1NC(=O)C2C1C=CC(C(O)c1cccs1)N2Nc1ccccn1 (centres undefined)
Response given: 0.253

Challenge: Please give measured z-score of the following entry: CN(C)CCCCCCNC(=O)[C@@H]1C[C@@H]2C(=O)NCC(=O)N2[C@@H]1c1cccc(OCCO)c1
Response given: 0.109
